- Target entity: T1, full-length beta-Catenin (Uniprot ID P35222) (Homo sapiens (Human), UniProt P35222 2-781)
- T1 construct: The assay protocols say only 'full-length'; No tag is stated, although the AlphaScreen kit is a Histidine (Nickel Chelate) kit; also called B-Catenin; bCat
- T1 sequence: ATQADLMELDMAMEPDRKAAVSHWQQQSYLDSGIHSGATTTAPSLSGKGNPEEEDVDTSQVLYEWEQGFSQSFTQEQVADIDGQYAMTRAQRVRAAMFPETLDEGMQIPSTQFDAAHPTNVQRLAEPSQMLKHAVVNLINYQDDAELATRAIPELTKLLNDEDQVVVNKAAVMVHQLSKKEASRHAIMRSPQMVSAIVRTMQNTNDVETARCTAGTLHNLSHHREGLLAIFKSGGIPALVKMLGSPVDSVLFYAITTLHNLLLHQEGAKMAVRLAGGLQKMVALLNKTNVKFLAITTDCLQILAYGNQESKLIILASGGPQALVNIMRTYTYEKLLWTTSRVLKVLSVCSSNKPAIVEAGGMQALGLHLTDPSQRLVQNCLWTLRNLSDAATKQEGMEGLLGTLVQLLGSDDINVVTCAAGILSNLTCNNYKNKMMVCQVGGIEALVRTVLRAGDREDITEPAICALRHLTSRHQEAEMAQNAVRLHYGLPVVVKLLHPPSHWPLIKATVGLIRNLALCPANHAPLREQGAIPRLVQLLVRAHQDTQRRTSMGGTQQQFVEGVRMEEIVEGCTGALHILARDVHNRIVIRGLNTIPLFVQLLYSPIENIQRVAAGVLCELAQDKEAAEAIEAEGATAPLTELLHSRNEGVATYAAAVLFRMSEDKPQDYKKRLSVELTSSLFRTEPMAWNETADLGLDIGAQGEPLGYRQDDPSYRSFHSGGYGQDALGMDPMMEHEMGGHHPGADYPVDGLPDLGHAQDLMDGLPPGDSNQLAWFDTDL
- Assay notes: fluorescence polarization competition; peptide titrated against full-length beta-catenin + 5FAM-TCF4(10-53) probe
I'd appreciate it if you could supply EC50 values for the items below.
Unit µM implied. Number only.

Name the reported EC50 value associated with the binder XDAXDDAAFVXFAQ (not fully specified; N-terminal Ac; C-terminal NH2; PL3 at 1, B5 at 4, S8 at 11 (stapled 1-4 and 4-11), Stapled peptide composition; Earlier-eluting isomer composition; also called Ac-PL3-Asp-Ala-B5-Asp-Asp-Ala-Ala-Phe-Val-S8-Phe-Ala-Gln-NH2) [I-357] 5

Item under review: XDAXDDAAFVXAWQ (not fully specified; N-terminal Ac; C-terminal NH2; PL3 at 1, B5 at 4, S8 at 11 (stapled 1-4 and 4-11), Stapled peptide composition; Later-eluting isomer composition; also called Ac-PL3-Asp-Ala-B5-Asp-Asp-Ala-Ala-Phe-Val-S8-Ala-Trp-Gln-NH2) [I-356] . Reported EC50? 5

Record request: EC50 value, item XDAXDDAAFVXAWQ (not fully specified; N-terminal Ac; C-terminal NH2; PL3 at 1, B5 at 4, S8 at 11 (stapled 1-4 and 4-11), Stapled peptide composition; Earlier-eluting isomer composition; also called Ac-PL3-Asp-Ala-B5-Asp-Asp-Ala-Ala-Phe-Val-S8-Ala-Trp-Gln-NH2) [I-355] 5
